- Tested on: 233499-124-R-J3-PDC complex spheroid growth
- experiment: Anticancer human tumor 233499-124-R-J3-PDC patient-derived colon adenocarcinoma cell line growth inhibition [AhR]; active = viability on the fitted dose curve at most 10% of control; inactive = the rest
- condition.notes: second compound 0.1 µM; first compound 10 µM
Thanks in advance; please answer with one of these: active, inactive

Problem: Status in this test for COc1cc(Nc2ncc3c(n2)-c2ccc(Cl)cc2C(c2c(F)cccc2OC)=NC3)ccc1C(=O)O + CC(CO)NC(=O)c1cc(-c2ccc(Cl)cc2)nn(-c2cnn(C)c2)c1=O ?
Solution: inactive

Problem: Status in this test for COc1cc(C2c3cc4c(cc3C(OC3OC5COC(C)OC5C(O)C3O)C3COC(=O)C23)OCO4)cc(OC)c1O (stereo unspecified) + Cc1ccccc1N=Nc1ccc(NC(=O)c2ccnn2C)c(C)c1 ?
Solution: inactive

Problem: Status in this test for Nc1ccn(C2OC(CO)C(O)C2(F)F)c(=O)n1 (stereo unspecified) + Cc1ccccc1N=Nc1ccc(NC(=O)c2ccnn2C)c(C)c1 ?
Solution: inactive

Problem: Status in this test for O=C(c1cc(Cc2n[nH]c(=O)c3ccccc23)ccc1F)N1CCN(C(=O)C2CC2)CC1 + CC(CO)NC(=O)c1cc(-c2ccc(Cl)cc2)nn(-c2cnn(C)c2)c1=O ?
Solution: inactive

Problem: Status in this test for Nc1ccccc1NC(=O)c1ccc(CNC(=O)OCc2cccnc2)cc1 + Cc1ccccc1N=Nc1ccc(NC(=O)c2ccnn2C)c(C)c1 ?
Solution: active

Problem: Status in this test for COc1cc(Nc2ncc3c(n2)-c2ccc(Cl)cc2C(c2c(F)cccc2OC)=NC3)ccc1C(=O)O + Cc1ccccc1N=Nc1ccc(NC(=O)c2ccnn2C)c(C)c1 ?
Solution: inactive

###

- Test system: 233499-124-R-J3-PDC complex spheroid growth
- experiment: Anticancer human tumor 233499-124-R-J3-PDC cell line growth inhibition [AhR];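 also: spheroids exposed to agents for seven days before reading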
- condition.notes: second compound 10 µM; first compound 0.01 µM; active compounds read low
parameter: viability, T/C (%)
State just the number; it will be interpreted in %.

Quick note, viability, T/C for CC[C@@]1(O)C(=O)OCc2c1cc1n(c2=O)Cc2cc3c(CN(C)C)c(O)ccc3nc2-1 + CC(CO)NC(=O)c1cc(-c2ccc(Cl)cc2)nn(-c2cnn(C)c2)c1=O landed at 68.6

Quick note, viability, T/C for Cn1ncnc1C1c2n[nH]c(=O)c3cc(F)cc(c23)NC1c1ccc(F)cc1 (stereo unspecified) + Cc1ccccc1N=Nc1ccc(NC(=O)c2ccnn2C)c(C)c1 landed at 98.7

Quick note, viability, T/C for Nc1ncn(C2CC(O)C(CO)O2)c(=O)n1 (stereo unspecified) + CC(CO)NC(=O)c1cc(-c2ccc(Cl)cc2)nn(-c2cnn(C)c2)c1=O landed at 79.9

Quick note, viability, T/C for CC[C@@]1(O)C(=O)OCc2c1cc1n(c2=O)Cc2cc3c(CN(C)C)c(O)ccc3nc2-1 + Cc1ccccc1N=Nc1ccc(NC(=O)c2ccnn2C)c(C)c1 landed at 104

Quick note, viability, T/C for CC1COCCN1c1cc(-c2ccnn2C)c2ccnc(-c3ccn[nH]3)c2n1 (stereo unspecified) + CC(CO)NC(=O)c1cc(-c2ccc(Cl)cc2)nn(-c2cnn(C)c2)c1=O landed at 90

Quick note, viability, T/C for Nc1ncn(C2CC(O)C(CO)O2)c(=O)n1 (stereo unspecified) + Cc1cncc(-c2nc(NCCc3c[nH]c4ccccc34)c3ncn(C(C)C)c3n2)c1 landed at 26.8
